- System: Bacillus subtilis
- Assay procedure: cleaved RNA product abundance (RNA/gDNA barcode ratio) relative to median wild-type variant (ratio to wild type); higher = more accumulation of the downstream cleavage product
- Condition details: experiment (reporter, strain, medium): exp 8a: truncated aprE reporter, strain BJT201 with 2% xylose (RNase J1 expressed); cleavage site: glnRA (positions -5 to +31 mutated)
Value type: cleaved RNA product abundance
// keep it numeric: no unit symbol after the value

Q) I have this sequence here, `CGACATGTCCCGCTTCTTTCATTAATCCTTGAGCAACTGTTTTGCTATATACATTTACCTTTTAAGAGGAGGAAT` , and I need its recorded cleaved RNA product abundance.
A) 0.57

Q) I have this sequence here, `CGACATGTCCCGCTTCTTTCATTAATCCGTTAGCAACTGTTTTGCTATATACATATAACTTTTAAGAGGAGGAAT` , and I need its recorded cleaved RNA product abundance.
A) 1.73

Q) I have this sequence here, `CGACATGTCCCGCTTCTTTCATTAATCCGTTAGCAACTGTTTTGCTATATACATTGACCTTTTAAGAGGAGGAAT` , and I need its recorded cleaved RNA product abundance.
A) 0.989

Q) I have this sequence here, `CGACATGTCCCGCTTCTTTCATTAATCCGTGAGCAACTGTTTTGCTATACACATTTACCTTTTAAGAGGAGGAAT` , and I need its recorded cleaved RNA product abundance.
A) 0.0879

* * *

I'd appreciate it if you could supply cleaved RNA product abundance values for the items below.
- System: Bacillus subtilis
- Assay procedure: cleaved RNA product abundance (RNA/gDNA barcode ratio) relative to median wild-type variant (ratio to wild type); higher = more accumulation of the downstream cleavage product
- Condition details: experiment (reporter, strain, medium): exp 2b: truncated aprE reporter, strain BJT200; cleavage site: cggR-gapA (positions -7 to +36 mutated)
// keep it numeric: no unit symbol after the value

Q) I have this sequence here, `ACAGACGAAGGAGCCGCAAAGAAGTTATAAAGAGATGAATAATCCCTCAATATAAATATCTCTCACTTATTTAAA` , and I need its recorded cleaved RNA product abundance.
A) 0.11

Q) I have this sequence here, `ACAGACGAAGGAGCCGCAAAGAAGTTATTAAGGGATAAATACTCCCTCAATATAAATATCTCTCACTTATTTAAA` , and I need its recorded cleaved RNA product abundance.
A) 0.674

Q) I have this sequence here, `ACAGACGAAGGAGCCGCAAAGAAGTTATTAAGGGATGAAAAATCCCTCAATATTAATATCTCTCACTTATTTAAA` , and I need its recorded cleaved RNA product abundance.
A) 0.199

Q) I have this sequence here, `ACAGACGAAGGAGCCGCAAAGAAGTTATTAAGTGATCAATAATCCCTCAATATAAATATCTCTCACTTATTTAAA` , and I need its recorded cleaved RNA product abundance.
A) 0.0674

* * *

- Tested on: Bacillus subtilis
- Assay procedure: cleaved RNA product abundance (RNA/gDNA barcode ratio) relative to median wild-type variant (ratio to wild type); higher = more accumulation of the downstream cleavage product
- Condition details: experiment (reporter, strain, medium): exp 4a: truncated aprE reporter, strain BJT201 with 2% xylose (RNase J1 expressed); cleavage site: cggR-gapA (positions -7 to +36 mutated)
Value type: cleaved RNA product abundance
// keep it numeric: no unit symbol after the value

Q) I have this sequence here, `ACAGACGAAGGAGCCGCAAACAAGTTATTAAGGGATGAATAATCCCTCAAAATAAATATCTCTCACTTATTTAAA` , and I need its recorded cleaved RNA product abundance.
A) 0.257

Q) I have this sequence here, `ACAGACGAAGGAGCCGCAAAGAAGCTATTAAGCGATGAATAATCCCTCAATATAAATATCTCTCACTTATTTAAA` , and I need its recorded cleaved RNA product abundance.
A) 0.0691

Q) I have this sequence here, `ACAGACGAAGGAGCCGCAAAGAAGTTATTAAGGGATGTATAATCCGTCAATATAAATATCTCTCACTTATTTAAA` , and I need its recorded cleaved RNA product abundance.
A) 0.187

Q) I have this sequence here, `ACAGACGAAGGAGCCGCAAAGAAGTTATTAAGAGATGAATAACCCCTCAATATAAATATCTCTCACTTATTTAAA` , and I need its recorded cleaved RNA product abundance.
A) 0.147

Q) I have this sequence here, `ACAGACGAAGGAGCCGCATAGAAGTTATTAAGGGATGAATAAACCCTCAATATAAATATCTCTCACTTATTTAAA` , and I need its recorded cleaved RNA product abundance.
A) 0.471
